Values compiled from PubChem BioAssay (NCI).

# System: OVCAR-8 ovarian
# assay_protocol: NCI-60 one-dose screen, 48 h
# condition_label: 10 µM unless noted
Compounds without any hit were thinned out: in the full panel of roughly 83,000, 20% have a hit. Calls of active or inactive are those of the source. The calls were made as follows: active = growth percent below 10; inactive = the rest.
Outcome codes: T (active), F (inactive)

> print(dat)
                                    compound  class.name
 1  Nc1c(C(=O)Nc2ccccc2)sc2nc3c(cc12)C(=O)CCC3           F
 2  COc1cc(NC(=O)CSc2nc3ccc(Cl)cc3c(=O)n2Cc2ccccc2)cc(OC)c1OC           F
 3  Cc1c(C(N)=O)sc2ncn(CC(=O)NN=C3CCCCC3)c(=O)c12           F
 4  COc1ccc(Oc2nc(Nc3ccc(N4CCOCC4)cc3)ncc2NC(=O)Nc2cccc(OC)c2)cc1           F
 5  CC(C)(C)c1nn(-c2ccccc2)c2c1C(=O)CSC(c1ccccc1Cl)N2 (stereo unspecified)           F
 6  COc1ccccc1-[n+]1cc(-c2ccc(-c3ccccc3)cc2)n2c1CCCCC2           T
 7  COc1ccc2c(c1)N(Cc1ccc(Cl)cc1)CCC2N1CCCC1=O (stereo unspecified)           F
 8  COc1cccc(/C(C)=N/NC(=O)CSc2nc3ccccc3c(=O)n2CCc2ccc(S(N)(=O)=O)cc2)c1           T
 9         Nc1c(Br)cc2c(c1Br)Cc1cc(Cl)ccc1-2           F
10  COc1cc(CN2CCC(N3CCCC3=O)c3ccccc32)cc(OC)c1OC (stereo unspecified)           F
11  C=C1C(=O)O[C@H]2[C@H]1CC/C(COC(=O)NCc1cn(C)c3ccccc13)=C\CC[C@@]1(C)O[C@@H]21           T
12  COc1ccccc1CNCCCN1C(=O)c2ccc3c4c(ccc(c24)C1=O)C(=O)N(CCCOCCCCOCCCN)C3=O           T
13  O=[N+]([O-])c1ccc(N/N=C\c2ccc(O)cc2O)nc1           F
14  CC1(C)CN(CCNc2nccc(-c3c(-c4cccc(O)c4)nc4sccn34)n2)S(=O)(=O)N1           F
15  CC(=O)Oc1ccccc1C(=O)Nc1ncc([N+](=O)[O-])s1           F
16  COc1ccc(C2NC(=O)c3cc4c(cc3N2)OCO4)cc1 (stereo unspecified)           F
17      COc1ccc(-c2cnnn2-c2nonc2-n2cccc2)cc1           F
18  Cc1ccc(C(=O)CC(=O)C(F)(F)C(F)(F)C(F)(F)F)s1           F
19  CCn1c(Cc2ccccc2Nc2c(Cl)cccc2Cl)nnc1SCC(=O)Nc1cccc(OC)c1           F
20   CC(=O)Nc1c(Br)cc2c(c1Br)Cc1cc(Br)ccc1-2           F
21  O=C1/C(=C/N2N=C(c3ccc(Cl)cc3)CC2c2ccccc2O)SC(=S)N1c1cccc(C(F)(F)F)c1 (stereo unspecified)           F
22  Cc1nn(-c2ccccc2)c2nc3c(nc12)C1=NCCN1C(c1ccc(Cl)cc1)N3 (stereo unspecified)           F
23  CNC(=O)c1c(NC(=O)c2cccc(C(F)(F)F)c2)sc2c1CCC(=O)C2           T
24  COc1ccc(Cl)cc1Nc1nc(C(F)(F)F)ccc1C(=O)NN           F
25  CCOC(=O)c1ccc2c(c1)[n+](=O)c(C(=O)c1ccc3ccccc3c1)c(C(F)(F)F)n2[O-]           T
26  O=C(O)c1ccccc1Oc1cc(-c2ccco2)nc(OCCN2CCOCC2)n1           F
27  COc1cc(CN(c2ccc(C)cc2)C2OC(=O)c3ccccc32)cc(OC)c1OC (stereo unspecified)           F
28  O=C(CSc1nnc(Cc2ccccc2Nc2c(Cl)cccc2Cl)n1-c1ccccc1)N1N=C(c2ccc3ccccc3c2)CC1c1ccc(Cl)cc1 (stereo unspecified)           F
29  Oc1c(C(Nc2cccc3ccccc23)c2ccccc2)ccc2cccnc12 (stereo unspecified)           F
30                 Clc1ccc(-c2cnc3nonc3n2)s1           F
31             O/N=C1\c2ccccc2-c2ccc(Br)cc21           F
32  COc1cc(/C=N/NC(=O)Cn2c(-c3ccc(C)o3)nc3ccccc32)ccc1OCc1ccccc1           F
33  CNC(=O)c1c(NC(=O)c2ccc(C(C)C)cc2)sc2c1CCC(=O)C2           F
34  CCNC(=O)c1ccc2c(c1)nc(-c1ccc(Cl)cc1)n2-c1cc(C(C)(C)C)[nH]n1           F
35  O=S1(=O)NCCCN1CCNc1nccc(-c2c(-c3cccc(O)c3)nc3sccn23)n1           F
36              NC(=O)c1ccc[n+](Cc2ccccc2)c1           F
37       O=C(CC(=O)c1cccc(Cl)c1)c1cccc(Cl)c1           F
38  C=CCOC(=O)C1=C(C)NC2=C(C(=O)CC(C)(C)C2)C1c1ccc(OC)cc1 (stereo unspecified)           F
39  CCSCC1CC(O)(c2ccccc2)C(c2ccccc2)C(c2ccc(F)cc2)O1 (stereo unspecified)           T
40  CCN(CC)CCNC(=O)n1cc(-c2ccncc2)c(-c2ccc(Cl)c(OC)c2)n1           F
41  COc1cccc(/C=N\Nc2ccc([N+](=O)[O-])cn2)c1O           F
